All figures here come from PubChem BioAssay.

molecular target: Nuclear receptor subfamily 5 group A member 2 (Homo sapiens) (UniProt O00482); assay: LRH-1 (NR5A2) inverse agonists, retest, confirmation, cell-based, luminescence (AID 651613); conditions: cell-based LRH-1 luciferase reporter, inverse agonism; at 3.6 µM;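 note: HEK293T cells co-transfected with LRH-1 and StAR promoter luciferase reporter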
Sequence (O00482 whole entry, looked up): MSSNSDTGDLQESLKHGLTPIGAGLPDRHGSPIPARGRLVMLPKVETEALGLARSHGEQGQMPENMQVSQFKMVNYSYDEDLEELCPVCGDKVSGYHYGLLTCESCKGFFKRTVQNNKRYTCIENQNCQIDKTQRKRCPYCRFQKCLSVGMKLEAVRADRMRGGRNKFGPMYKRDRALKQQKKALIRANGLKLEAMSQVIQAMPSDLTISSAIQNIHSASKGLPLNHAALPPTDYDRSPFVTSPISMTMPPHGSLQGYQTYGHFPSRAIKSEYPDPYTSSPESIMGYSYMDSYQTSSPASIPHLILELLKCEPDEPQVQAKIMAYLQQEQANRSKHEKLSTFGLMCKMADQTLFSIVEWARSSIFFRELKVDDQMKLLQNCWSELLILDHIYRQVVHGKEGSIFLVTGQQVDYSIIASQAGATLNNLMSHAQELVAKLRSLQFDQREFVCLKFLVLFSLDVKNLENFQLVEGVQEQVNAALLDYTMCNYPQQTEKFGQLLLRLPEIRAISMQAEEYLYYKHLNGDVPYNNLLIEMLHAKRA
Calls of active or inactive are those of the source. Cut-off read from the data, not from the text of the source: active = inhibition above about 42%; inactive = the rest.
Return exactly one item of active, inactive

Use the examples below as a reference point.
O=C(CSc1nc2[nH]ncc2c(=O)n1-c1ccccc1)c1ccc2c(c1)OCCO2 :: inactive
CN(C)CCNc1ccc2ncn3c4ccc(O)cc4c(=O)c1c23 :: active
CCOc1ccc2c(c1)sc(N)[n+]2Cc1cc(C)cc2cccnc12 :: active
CN(C)S(=O)(=O)c1cccc(C(=O)OCC(=O)Nc2ccc3c(c2)OCCO3)c1 :: active
c1ccc(C2=Nn3c(nnc3-c3n[nH]c4c3CCC4)SC2)cc1 :: active

// outcome(item) with item = COc1cc(-c2cc(C(=O)Nc3ccncc3)c3ccccc3n2)cc(OC)c1OC inactive

// outcome(item) with item = OCC1OC(n2cnc3c(NCc4ccccc4O)ncnc32)C(O)C1O (stereo not given) active

// outcome(item) with item = COc1ccc(OC)c(CCNC(=O)C(C)n2nc(C)c3c(C)n(-c4ccc(C)cc4)nc3c2=O)c1 (stereo not given) active

// outcome(item) with item = CCOC(=O)c1c2c(n(Cc3ccccc3)c1C)C(=O)C(=O)c1ccccc1-2 active

// outcome(item) with item = O=C(COC(=O)c1ccc[nH]c1=O)Nc1ccc(N2CCCCC2)cc1 active
